- assay-system: Gonadotropin-releasing hormone receptor (Rattus norvegicus) (UniProt P30969)
- Sequence (P30969 whole entry): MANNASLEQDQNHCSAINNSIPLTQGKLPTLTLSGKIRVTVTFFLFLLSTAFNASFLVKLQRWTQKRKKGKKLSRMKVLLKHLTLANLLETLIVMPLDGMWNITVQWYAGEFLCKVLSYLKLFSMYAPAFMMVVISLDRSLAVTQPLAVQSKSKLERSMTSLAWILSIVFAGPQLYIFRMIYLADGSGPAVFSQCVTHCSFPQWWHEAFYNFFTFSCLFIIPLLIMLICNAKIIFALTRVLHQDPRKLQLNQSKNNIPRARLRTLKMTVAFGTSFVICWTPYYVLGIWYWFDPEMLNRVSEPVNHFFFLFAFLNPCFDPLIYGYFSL
- assay-info: In vitro antagonist activity at GNRHR in CD rat anterior pituitary gland assessed as inhibition of LH-RH-stimulated LH release at compound to LH-RH molar ratio of 1000 after 4 hrs by radioimmunoassay
- measurement-setup: concentration not given here
Numbered stars: 1 amine (or outer) side, 2 acyl side, 3 side chain; on linkers, the order of the positions; unused ones are H or OH. Peptide text beside a SMILES is read from it. * marks the point of attachment. NHcHex = C1CCC(N*)CC1; CO = O=C([*:1])[*:2]
readout: inhibition (%)
# value in %; strip the unit string

In the examples that follow, each entry is paired with its recorded inhibition.
compound="CC(C)C[C@H](NC(=O)CNC(=O)[C@H](Cc1ccc(O)cc1)NC(=O)[C@H](CO)NC(=O)[C@H](Cc1c[nH]c2ccccc12)NC(=O)[C@H](CCC(N)=O)NC=O)C(=O)N[C@@H](CCCNC(=N)N)C(=O)N1CCC[C@H]1C(=O)NCC(N)=O (HELM PEPTIDE1{[O=C[*:2]].Q.W.S.Y.G.L.R.P.G.[am]}$$$$V2.0)" reported_value=0
compound="CC(C)C[C@H](NC(=O)CNC(=O)[C@H](Cc1ccc(O)cc1)NC(=O)[C@H](CO)NC(=O)[C@H](Cc1c[nH]c2ccccc12)NC(=O)NC1CCCCC1)C(=O)N[C@@H](CCCNC(=N)N)C(=O)N1CCC[C@H]1C(=O)NCC(N)=O ({NHcHex-CO}-WSYGLRPG-NH2)" reported_value=19

Q: Please indicate recorded inhibition of CC(C)C[C@H](NC(=O)CNC(=O)[C@H](Cc1ccc(O)cc1)NC(=O)[C@H](CO)NC(=O)[C@H](Cc1c[nH]c2ccccc12)NC(=O)[C@H](CC(N)=O)NC(=O)OCc1ccccc1)C(=O)N[C@@H](CCCNC(=N)N)C(=O)N1CCC[C@H]1C(=O)NCC(N)=O (HELM PEPTIDE1{[O=C(OCc1ccccc1)[*:2]].N.W.S.Y.G.L.R.P.G.[am]}$$$$V2.0) measured with Gonadotropin-releasing hormone receptor (Rattus norvegicus) (UniProt P30969).
Result: 35

Taken from ChEMBL document CHEMBL3272173.
